B1: library; numbered along this chain (parent)
chain: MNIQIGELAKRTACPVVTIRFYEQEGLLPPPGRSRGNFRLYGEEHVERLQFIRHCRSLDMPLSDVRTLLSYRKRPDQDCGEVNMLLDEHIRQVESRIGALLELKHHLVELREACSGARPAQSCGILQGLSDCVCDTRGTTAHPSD

- Variants of: B1
- protocol_notes: sfGFP reporter fluorescence (15 h) (µM FITC); higher = stronger transcriptional activation
- conditions: library round: Round 0; ligand: 30 µM Zn
Given measured sfGFP reporter fluorescence, output yes if it is greater than or equal to 0.6 and no if not.

Use these answered entries as a reference point.
INSERT INTO assay_data (mutant_id, class_assignment) VALUES
  ('C114D', 'no'),
  ('D131C', 'no'),
  ('V108D', 'yes'),
  ('P143N', 'yes'),
  ('P61Y', 'no');

Request: Does C114L have a reported sfGFP reporter fluorescence of at least 0.6?
Result: no

Request: Decide: sfGFP reporter fluorescence of P30G >= 0.6?
Result: no

Request: Determine whether this variant has sfGFP reporter fluorescence no lower than 0.6: E43S
Result: yes

Request: Say whether G128R shows sfGFP reporter fluorescence of 0.6 or more.
Result: yes

Request: Please check the record P61M and state if its sfGFP reporter fluorescence is at or above 0.6.
Result: yes
